Test system: CD2F1 mice, L1210 leukemia ip, survival T/C
protocol.summary: NCI In Vivo Anticancer Drug Screen. Data for tumor model L1210 Leukemia (intraperitoneal) in CD2F1 (CDF1) mice
experimental.conditions: endpoint: mean survival time; dose: 200.0 mg/kg/injection; schedule: Q01DX009 (ip); vehicle: saline with Tween-80; higher = longer survival
Toxic doses and inconclusive results are not listed.
So I've got a bunch of compounds here, and I need their T/C values.

compound | T/C
COCC(=O)c1ccccc1 | 96 % of control

Provide T/C values for the following items, in order.
1. COc1ccc(-c2cc(C(=O)O)c3cccc(C)c3n2)cc1
2. COc1ccc(OC)c2nc(-c3ccccc3)c(-c3ccccc3)nc12
3. O=C1CCCC(=O)N1CCCCCCN1C(=O)CCCC1=O
4. CC(C)CCCC(C)C1CCC2C3CCC4CCCCC4(C)C3CCC12C (configuration not stated)
5. NCc1ccccc1
6. CNS(=O)(=O)c1ccc2c(c1)[nH]c(=S)n2C

Completion:
95 % of control
97 % of control
108 % of control
94 % of control
100 % of control
93 % of control

----------
Test system: CD2F1 mice, L1210 leukemia ip, survival T/C
protocol.summary: NCI In Vivo Anticancer Drug Screen. Data for tumor model L1210 Leukemia (intraperitoneal) in CD2F1 (CDF1) mice
experimental.conditions: endpoint: mean survival time; dose: 400.0 mg/kg/injection; schedule: Q04DX003 (ip); vehicle: saline with Tween-80; higher = longer survival
Inconclusive results and toxic doses are left out.
I'd appreciate it if you could supply T/C values for the items below.

Solved entries (count: 4):
compound | test.system | T/C
N#Cc1cccc2c(S(=O)(=O)O)cccc12 | CD2F1 mice, L1210 leukemia ip, survival T/C | 104 % of control
O=C(Nc1cc2ccccc2o1)O/N=C/c1ccccn1 | CD2F1 mice, L1210 leukemia ip, survival T/C | 86 % of control
CCCCCCCCCC(=O)NC(=S)Nc1cccc(C(C)=O)c1 | CD2F1 mice, L1210 leukemia ip, survival T/C | 95 % of control
O=CN(CCNc1ccccc1)c1ccccc1 | CD2F1 mice, L1210 leukemia ip, survival T/C | 95 % of control

Could you tell me T/C for each of these compounds? They are listed below.
1. c1ccc(N=Nc2n[nH]c3ccccc23)cc1
2. O=C(SSC(=O)c1ccccc1)c1ccccc1
3. O=C(/C=C\c1ccccc1)C(=O)/C=C/c1ccccc1
4. C[S+](C)CC(=O)c1ccccc1O
5. CN(C)c1ccc(CN2CCCN(Cc3ccc(N(C)C)cc3)C2c2cc(Cl)ccc2O)cc1
6. CSc1cccc(NC2=NCCO2)c1

Completion:
95 % of control
96 % of control
95 % of control
100 % of control
92 % of control
86 % of control

Give T/C for each listed item.
1. O/N=C1/CCCc2ccccc21
2. O=C(c1ccc(Cl)cc1)c1no[n+]([O-])c1C(=O)c1ccc(Cl)cc1
3. CC(C#N)(Nc1ccccc1)c1ccccn1 (stereo not drawn)

Completion:
1: 100 % of control; 2: 95 % of control; 3: 89 % of control
